STUDY_SYSTEM: PI3Kβ (Homo sapiens)
Construct: made in house
Sequence (P42338 whole entry): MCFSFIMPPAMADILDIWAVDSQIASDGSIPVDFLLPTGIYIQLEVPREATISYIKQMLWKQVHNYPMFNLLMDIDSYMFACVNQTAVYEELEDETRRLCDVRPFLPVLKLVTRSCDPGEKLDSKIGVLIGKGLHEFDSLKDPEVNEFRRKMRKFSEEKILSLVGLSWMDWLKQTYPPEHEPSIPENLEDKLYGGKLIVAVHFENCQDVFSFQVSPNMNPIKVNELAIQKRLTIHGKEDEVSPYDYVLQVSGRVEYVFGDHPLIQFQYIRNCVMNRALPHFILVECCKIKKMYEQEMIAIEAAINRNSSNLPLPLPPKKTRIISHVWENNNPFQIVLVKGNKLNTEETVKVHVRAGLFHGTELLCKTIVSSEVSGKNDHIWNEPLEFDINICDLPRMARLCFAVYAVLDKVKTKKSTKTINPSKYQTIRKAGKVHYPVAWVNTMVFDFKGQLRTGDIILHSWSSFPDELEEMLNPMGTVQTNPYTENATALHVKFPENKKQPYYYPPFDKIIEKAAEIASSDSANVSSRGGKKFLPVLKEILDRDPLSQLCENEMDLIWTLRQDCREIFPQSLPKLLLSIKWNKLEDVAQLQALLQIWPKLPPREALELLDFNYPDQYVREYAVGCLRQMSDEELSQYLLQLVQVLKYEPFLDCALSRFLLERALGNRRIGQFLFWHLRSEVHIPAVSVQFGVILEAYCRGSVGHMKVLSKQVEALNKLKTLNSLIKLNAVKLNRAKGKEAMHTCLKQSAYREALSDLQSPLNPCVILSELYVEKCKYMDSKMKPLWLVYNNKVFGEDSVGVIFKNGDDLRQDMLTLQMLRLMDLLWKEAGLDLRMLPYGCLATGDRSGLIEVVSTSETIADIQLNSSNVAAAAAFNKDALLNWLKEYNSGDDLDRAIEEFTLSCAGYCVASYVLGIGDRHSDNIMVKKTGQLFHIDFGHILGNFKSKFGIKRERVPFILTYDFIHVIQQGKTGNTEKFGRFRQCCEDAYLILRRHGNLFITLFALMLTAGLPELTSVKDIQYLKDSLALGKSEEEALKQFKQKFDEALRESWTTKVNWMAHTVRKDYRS
Sequence (P27986 whole entry partner): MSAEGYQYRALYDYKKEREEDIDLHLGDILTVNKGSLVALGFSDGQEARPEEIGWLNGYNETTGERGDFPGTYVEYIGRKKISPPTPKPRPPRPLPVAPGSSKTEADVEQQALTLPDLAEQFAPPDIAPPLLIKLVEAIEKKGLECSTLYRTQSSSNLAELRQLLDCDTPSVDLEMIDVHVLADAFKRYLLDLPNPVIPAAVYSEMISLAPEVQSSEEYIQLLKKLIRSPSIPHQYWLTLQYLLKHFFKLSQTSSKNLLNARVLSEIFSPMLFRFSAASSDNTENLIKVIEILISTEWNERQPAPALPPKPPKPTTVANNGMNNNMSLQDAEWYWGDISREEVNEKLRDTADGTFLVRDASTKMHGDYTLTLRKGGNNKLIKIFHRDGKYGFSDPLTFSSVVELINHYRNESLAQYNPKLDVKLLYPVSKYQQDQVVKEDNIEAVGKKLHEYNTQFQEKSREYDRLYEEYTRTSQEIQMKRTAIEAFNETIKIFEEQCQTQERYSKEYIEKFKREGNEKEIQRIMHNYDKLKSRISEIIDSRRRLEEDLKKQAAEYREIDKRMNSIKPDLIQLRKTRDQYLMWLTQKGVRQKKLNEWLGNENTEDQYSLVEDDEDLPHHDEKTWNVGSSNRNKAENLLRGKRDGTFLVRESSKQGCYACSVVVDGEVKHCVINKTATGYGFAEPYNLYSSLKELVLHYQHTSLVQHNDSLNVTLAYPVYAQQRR
ASSAY_SUMMARY: TR-FRET enzymatic activity assay, PI3Kβ
Format: biochemical
CONDITION_SUMMARY: Table 2a; same assay
REPORTED_METRIC: IC50 (nM)
Provide the reading as a plain figure in nM.

Send back PI3Kβ (Homo sapiens) IC50 of CCC[C@H](Nc1nc(N)nc(N)c1C#N)c1nc2c(Cl)ccc(Cl)c2c(=O)n1-c1cn[nH]c1 [Compound 251] only. 10

GET IC50 where system = PI3Kβ (Homo sapiens) and item = C[C@H](Nc1nc(N)nc(N)c1Cl)c1nc2cccc(Cl)c2c(=O)n1-c1cc(N)[nH]n1 [Compound 199] 7

Retrieve IC50 on PI3Kβ (Homo sapiens); query Nc1ncnc(N[C@H](c2nc3cccc(Cl)c3c(=O)n2-c2cc[nH]n2)C2CC2)c1Cl [Compound 165] 6
